# target-or-system: human GPR40 (Homo sapiens)
# Sequence (O14842 whole entry): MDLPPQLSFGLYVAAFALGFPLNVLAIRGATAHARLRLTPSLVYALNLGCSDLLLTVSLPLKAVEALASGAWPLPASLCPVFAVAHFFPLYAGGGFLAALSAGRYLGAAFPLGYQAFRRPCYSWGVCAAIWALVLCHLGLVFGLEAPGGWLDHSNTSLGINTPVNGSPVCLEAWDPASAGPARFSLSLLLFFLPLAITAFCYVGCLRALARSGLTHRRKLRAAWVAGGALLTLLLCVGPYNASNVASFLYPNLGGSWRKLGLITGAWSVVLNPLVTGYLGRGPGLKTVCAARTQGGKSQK
# assay-method-text: Cell-based aequorin assay using human GPR40
# cond: activation of human GPR40; CHO cells transfected with GPR40 and aequorin expression vectors; aequorin luminescence, area-under-curve 2-20 seconds; read-out: Relative EC50
pEC50: −log10 of the molar value.
observation-type: pEC50

# annotated cases, reported pEC50 shown
compound	pEC50
CC#CC(CC(=O)O)c1ccc(OCc2cccc(-c3ccccc3C(F)(F)F)c2)cc1 (centres unmarked)	7.00 to 8.00
CC#CC(CC(=O)O)c1ccc(OCc2nn(-c3ccccc3)nc2C)cc1 (centres unmarked)	7.00 to 8.00
COc1cccc(CN(Cc2cccc(OC)c2)c2ccc(N(CC(=O)O)c3ccccc3)cc2)c1	> 8.00
CC#CC(CC(=O)O)c1ccc(NCc2cccc(OC)c2)cc1 (centres unmarked)	6.00 to 7.00
CC#CC(CC(=O)O)c1ccc(OCc2noc(-c3ccc(C(F)(F)F)cc3)n2)cc1 (centres unmarked)	6.00 to 7.00

Below are some compounds; for each one, tell me its pEC50.
1. COc1cccc(CNc2ccc(N(CC(=O)O)c3ccccc3)cc2)c1
2. Cc1ccccc1COc1ccc(C(C#CC(F)(F)F)CC(=O)O)cc1 (centres unmarked) [Compound 75]
3. O=C(O)CC1(c2ccc(OCc3cccc(-c4ccc(C(F)(F)F)cc4)c3)cc2)CC1
4. CC#CC(CC(=O)O)c1ccc(OCc2cccc(-c3cccnc3)c2)cc1 (centres unmarked)
5. O=C(O)CC(c1ccc(OCc2cccc(-c3ccc(C(F)(F)F)cc3)c2)cc1)c1cccnc1 (centres unmarked)
6. CC#CC(CC(=O)Nc1nnn[nH]1)c1ccc(OCc2ccc(OC)cc2)cc1 (centres unmarked)

> 8.00
< 5.00
5.00 to 6.00
6.00 to 7.00
6.00 to 7.00
5.00 to 6.00

Could you report pEC50 for every entry in the following list?
1. CC#CC(CC(=O)O)c1ccc(OCc2cccc(-c3ccccc3)c2)cc1 (centres unmarked)
2. CC#CC(CC(=O)O)c1ccc(OCc2ccc(-c3cccc(OCC)c3)cc2)cc1 (centres unmarked)
3. CC#CC(CC(=O)O)c1ccc(OCc2csc(-c3ccc(OC)cc3)n2)cc1 (centres unmarked)
4. CC#CC(CC(=O)O)c1ccc(OCCc2ccccc2)cc1 (centres unmarked)
5. O=C(O)C[C@H](NC(=O)c1ccccc1)c1ccc(OCc2cccc(Oc3ccc(F)cc3)c2)cc1
6. CC#C[C@@H](CC(=O)O)c1ccc(OCc2csc(-c3ccc(C(F)(F)F)cc3)n2)cc1

7.00 to 8.00
6.00 to 7.00
7.00 to 8.00
5.00 to 6.00
< 5.00
> 8.00

Consider the following items and state reported pEC50 for each.
1. O=C(O)CN(c1ccccc1)c1ccc(NCc2cccc(Oc3ccccc3)c2)cc1
2. COc1cccc(/C=C/C(=O)Nc2ccc(N(CC(=O)O)c3ccccc3)cc2)c1
3. CC#CC(CC(=O)O)c1ccc(OCc2csc(-c3ccc(C(F)(F)F)cc3)n2)cc1 (centres unmarked)

["> 8.00", "> 8.00", "7.00 to 8.00"]
